Origin of measurements: ChEMBL document CHEMBL4627283

Assay System: NACHT, LRR and PYD domains-containing protein 3 (Homo sapiens)
Sequence (Q96P20 whole entry, the tested form may be a part): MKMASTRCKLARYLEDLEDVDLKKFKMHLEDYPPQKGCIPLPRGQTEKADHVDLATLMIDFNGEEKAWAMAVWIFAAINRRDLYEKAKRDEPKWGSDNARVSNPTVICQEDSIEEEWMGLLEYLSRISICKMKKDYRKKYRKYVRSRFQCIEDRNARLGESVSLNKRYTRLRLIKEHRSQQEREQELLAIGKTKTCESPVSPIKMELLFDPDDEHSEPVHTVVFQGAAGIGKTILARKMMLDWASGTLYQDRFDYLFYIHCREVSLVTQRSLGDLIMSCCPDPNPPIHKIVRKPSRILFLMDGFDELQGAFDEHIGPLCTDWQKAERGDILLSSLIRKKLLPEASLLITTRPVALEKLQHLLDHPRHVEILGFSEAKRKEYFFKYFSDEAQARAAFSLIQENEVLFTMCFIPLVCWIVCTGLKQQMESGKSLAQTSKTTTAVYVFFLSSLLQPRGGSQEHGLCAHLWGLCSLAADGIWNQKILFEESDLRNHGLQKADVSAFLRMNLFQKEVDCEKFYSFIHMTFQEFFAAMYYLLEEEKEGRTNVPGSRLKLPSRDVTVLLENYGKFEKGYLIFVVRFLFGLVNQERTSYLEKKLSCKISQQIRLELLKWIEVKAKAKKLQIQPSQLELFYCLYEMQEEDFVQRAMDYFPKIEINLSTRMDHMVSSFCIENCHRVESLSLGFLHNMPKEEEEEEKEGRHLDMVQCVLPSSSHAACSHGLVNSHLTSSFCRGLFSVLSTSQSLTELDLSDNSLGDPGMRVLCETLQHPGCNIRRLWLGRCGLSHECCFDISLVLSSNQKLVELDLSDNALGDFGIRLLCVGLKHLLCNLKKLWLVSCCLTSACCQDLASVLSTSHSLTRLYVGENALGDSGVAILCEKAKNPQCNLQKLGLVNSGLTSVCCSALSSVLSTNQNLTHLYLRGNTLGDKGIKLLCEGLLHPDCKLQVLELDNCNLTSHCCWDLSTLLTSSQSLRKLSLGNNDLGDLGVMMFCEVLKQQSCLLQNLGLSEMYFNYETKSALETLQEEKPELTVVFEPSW
Test: Inhibition of NLRP3 inflammasome (unknown origin) activation in LPS-primed bone marrow derived macrophage cells assessed as effect on IL-1beta production in presence of nigericin by ELISA
Please assign a class to every record based on measured IC50, with ranges bin A: < 3 µM; bin B: ≥ 3 µM and < 6 µM; bin C: ≥ 6 µM

In plain terms, what class is `O=C(Nc1ccccc1)c1ccc(/C=C2\SC(=S)N(c3cccc(C(F)(F)F)c3)C2=O)cc1` ?
bin C

# bin lookup: classify `O=C(O)c1ccc(/C=C2\SC(=S)N(Cc3ccc(-c4ccccc4)cc3)C2=O)cc1` by its IC50
bin C

For this compound, which bin applies? `O=C(O)c1ccc(/C=C2\SC(=S)N(Cc3cccnc3)C2=O)cc1`
bin C

Textbook exercise: identify the category of the compound given here, `CN1CCN(C(=O)c2ccc(/C=C3\SC(=S)N(c4cccc(OC(F)(F)F)c4)C3=O)cc2)CC1` , according to its measured value.
bin A

GET /class?item= `O=C(O)c1ccc(/C=C2\SC(=S)N(c3cccc(C(F)(F)F)c3)C2=O)cc1`
bin C

Which IC50 category applies to `O=C(c1ccc(/C=C2\SC(=S)N(c3cccc(C(F)(F)F)c3)C2=O)cc1)N1CCOCC1` here?
bin A

Place this compound in its band: `O=C(O)c1ccc(/C=C2\SC(=S)N(Cc3cccc(F)c3)C2=O)cc1`
bin B

Class (by measured IC50) for `O=C(O)c1ccc(/C=C2\SC(=S)N(Cc3cccc(OC(F)(F)F)c3)C2=O)cc1`
bin C

Pick a category. Item: `O=C1/C(=C/c2ccc(-c3nnn[nH]3)cc2)SC(=S)N1Cc1cccc(C(F)(F)F)c1`
bin B

Bin this entry: `CN1CCN(C(=O)c2ccc(/C=C3\SC(=S)N(Cc4cccc(C(F)(F)F)c4)C3=O)cc2)CC1`
bin C

Continuing:
Consider `O=C(O)c1ccc(/C=C2\SC(=S)N(Cc3cccc(C(F)(F)F)c3)C2=O)cc1` . To which IC50 class does it belong?
bin A

Hey, which category is `O=C1/C(=C/c2ccc(-c3nnn[nH]3)cc2)SC(=S)N1CCc1cccc(C(F)(F)F)c1` in, do you know?
bin C

Given `O=C(c1ccc(/C=C2\SC(=S)N(c3cccc(C(F)(F)F)c3)C2=O)cc1)N1CCC(O)CC1` , name the class its IC50 places it in.
bin A

Dear colleague, I would appreciate it if you could identify the bin for `O=C(O)c1ccc(/C=C2\SC(=S)N(CCCc3cccc(C(F)(F)F)c3)C2=O)cc1` and reply at your convenience.
bin B

* * *

Assay System: NACHT, LRR and PYD domains-containing protein 3 (Homo sapiens)
Test: Inhibition of NLRP3 inflammasome (unknown origin) activation in LPS-primed bone marrow derived macrophage cells at 10 uM in presence of mono sodium urate relative to control
Listing: inhibition of selected molecules
Just the number please, in %, no unit attached.

// inhibition lookup, key: `O=C1/C(=C/c2ccc(-c3nnn[nH]3)cc2)SC(=S)N1CCCc1cccc(C(F)(F)F)c1`
72

Fill in: inhibition of `CN1CCN(C(=O)c2ccc(/C=C3\SC(=S)N(c4cccc(C(F)(F)F)c4)C3=O)cc2)CC1` is ___
81

Item `CN1CCN(C(=O)c2ccc(/C=C3\SC(=S)N(c4cccc(OC(F)(F)F)c4)C3=O)cc2)CC1` has what recorded inhibition?
76

Tell me the measured inhibition of `O=C(O)c1ccc(/C=C2\SC(=S)N(Cc3cccc(F)c3)C2=O)cc1` , please.
63

Form field: reported inhibition of `O=C(O)c1ccc(/C=C2\SC(=O)N(Cc3cccc(C(F)(F)F)c3)C2=O)cc1`
67

Given the molecule `O=C(O)c1ccc(/C=C2\SC(=S)N(Cc3cccnc3)C2=O)cc1` , what is its reported inhibition?
63

Query (molecule): `O=C1/C(=C/c2ccc(-c3nnn[nH]3)cc2)SC(=S)N1Cc1cccc(C(F)(F)F)c1` ; field requested: inhibition
67

What value of measured inhibition is listed for `O=C(O)c1ccc(/C=C2\SC(=S)N(CCc3cccc(C(F)(F)F)c3)C2=O)cc1` ?
74

Dear colleague, I am looking for the recorded inhibition of the following molecule: `O=C(O)c1ccc(/C=C2\SC(=S)N(c3cccc(C(F)(F)F)c3)C2=O)cc1`
71

Would you kindly share the measured inhibition for `O=C(O)c1ccc(/C=C2\SC(=S)N(Cc3cccc(C(F)(F)F)c3)C2=O)cc1` ?
83

Now consider a different molecule.
Fill in: inhibition of `CN1CCN(C(=O)c2ccc(/C=C3\SC(=S)N(c4cccc([N+](=O)[O-])c4)C3=O)cc2)CC1` is ___
81

* * *

Assay System: NACHT, LRR and PYD domains-containing protein 3 (Homo sapiens)
Test: Inhibition of NLRP3 inflammasome (unknown origin) activation in LPS-primed bone marrow derived macrophage cells at 10 uM in presence of mono sodium urate relative to control
In this section we review reported inhibition values for a set of compounds.
A number alone suffices; assume %.

Consider the following illustrative entries.
Query (compound): `O=C(O)c1ccc(/C=C2\SC(=S)N(CCCc3cccc(C(F)(F)F)c3)C2=O)cc1` ; field requested: inhibition
68

State the recorded inhibition for this entry: `O=C1S/C(=C\c2ccc(-c3nnn[nH]3)cc2)C(=O)N1Cc1cccc(C(F)(F)F)c1`
63

Sample `O=C(c1ccc(/C=C2\SC(=S)N(c3cccc(C(F)(F)F)c3)C2=O)cc1)N1CCOCC1` — what was its inhibition?
81

Further cases:
Look up inhibition for this compound: `O=C(c1ccc(/C=C2\SC(=S)N(c3cccc(C(F)(F)F)c3)C2=O)cc1)N1CCC(O)CC1`
80
